METHOD SUMMARY: Anti-oxidant activity in DPPH radicak scavenging assay; n=3-4
MEASUREMENT LABEL: pIC50
Give bare numbers, as −log10 of the molar value.

{"SMILES": "Oc1ccc(/C=C/c2cc(/C=C/c3ccc(O)cc3)[nH]n2)cc1", "MEASURED": 4.49}
{"SMILES": "COc1cc(/C=C/c2cc(/C=C/c3ccc(O)cc3)on2)ccc1O", "MEASURED": 4.72}

Query: Request the reported pIC50 associated with COc1cc(C=Cc2cc(C=Cc3ccc(O)cc3)n[nH]2)ccc1O
Response: 4.81
